These measurements were taken from ChEMBL document CHEMBL3526048.

assay: Retention time of the compound by LC-MS/MS analysis; assay type: physicochemical
assay-endpoint: Retention_time (min)

Illustrative cases are given below, each with its answer.
> print(dat)
                                   molecule  result.value
1  COc1ccc2nc(COc3ccc(CC(C(N)=O)[S+](C)[O-])cc3)n(C)c2c1 (centres undefined)          16.1
2  COc1ccc2nc(COc3ccc(CC(SC)C(=O)O)cc3)n(C)c2c1 (centres undefined)          24.2
3  Cn1c(COc2ccc(CC3SC(=O)NC3=O)cc2)nc2ccc(OS(=O)(=O)O)cc21 (centres undefined)          18.9
4  COc1ccc2nc(COc3ccc(CC(SC(=O)N[C@@H]4O[C@H](C(=O)O)[C@@H](O)[C@H](O)[C@H]4O)C(=O)O)cc3)n(C)c2c1 (some centres undefined)          17.3
5  COc1ccc2nc(COc3ccc(CC(C(N)=O)S(C)(=O)=O)cc3)n(C)c2c1 (centres undefined)          18.1
6  Cn1c(COc2ccc(CC3SC(=O)NC3=O)cc2)nc2ccc(O)cc21 (centres undefined)          19.2

1. COc1ccc2nc(COc3ccc(CC(S)C(=O)O)cc3)n(C)c2c1 (centres undefined)
2. COc1ccc2nc(COc3ccc(CC(O)C(N)=O)cc3)n(C)c2c1 (centres undefined)
Q: Of 1 and 2 , whose reported Retention_time is the larger number? Answer format: the label of the selected item.
A: 1
(1: 23.9 min, 2: 16.3 min)

---

tested on: Liver microsome; assay: Drug level in human liver microsomes treated with [14C]-rivoglitazone at 20 uM after 2 hrs by radio-HPLC/LC-MS/MS analysis in presence of NADPH-generating system and NADPH-generating system/SAM; format: ADME
assay-endpoint: Drug metabolism

Illustrative cases are given below, each with its answer.
> print(dat)
                                   compound     assay.target         result.value
1  Cn1c(COc2ccc(CC3SC(=O)NC3=O)cc2)nc2ccc(O)cc21 (stereo not given)  Liver microsome  metabolite_detected
2  COc1ccc2nc(COc3ccc(CC(O)C(N)=O)cc3)n(C)c2c1 (stereo not given)  Liver microsome  metabolite_detected
3  COc1ccc2nc(COc3ccc(CC(S)C(N)=O)cc3)n(C)c2c1 (stereo not given)  Liver microsome  metabolite_detected
4  COc1ccc2nc(COc3ccc(CC4SC(=O)NC4=O)cc3)[nH]c2c1 (stereo not given)  Liver microsome  metabolite_detected

Just so you know, measured Drug metabolism for COc1ccc2nc(COc3ccc(CC4(O)SC(=O)NC4=O)cc3)n(C)c2c1 (stereo not given) came out at metabolite_detected

---

experiment: Retention time of the compound by LC-MS/MS analysis; format: physicochemical
assay-endpoint: Retention_time (min)

> print(dat)
                                   compound  result.value
1  COc1ccc2nc(COc3ccc(CC(SSCC(N)C(=O)O)C(=O)O)cc3)n(C)c2c1 (stereo unspecified)          17.1
2  COc1ccc2nc(COc3ccc(CC4(O)SC(=O)NC4=O)cc3)n(C)c2c1 (stereo unspecified)          21.5
3  COc1ccc2nc(COc3ccc(CC4SC(=O)N([C@@H]5O[C@H](C(=O)O)[C@@H](O)[C@H](O)[C@H]5O)C4=O)cc3)n(C)c2c1 (stereo partly specified)          19.8
4  COc1ccc2nc(COc3ccc(CC(S)C(N)=O)cc3)n(C)c2c1 (stereo unspecified)          20.2
5  COc1ccc2nc(COc3ccc(CC(SC)C(N)=O)cc3)n(C)c2c1 (stereo unspecified)          20.4
6  COc1ccc2nc(COc3ccc(CC4SC(=O)NC4=O)cc3)[nH]c2c1 (stereo unspecified)          20.9
